Tested on: HepG2
Test: Cytotoxicity against human HepG2 cells assessed as inhibition of cell proliferation after 72 hrs by MTT assay
Assay type: functional, cell-based
Details: HepG2, 72 h
What IC50 was measured for each of the following?
Numbers only, in µg/mL.

Batch request: IC50 for each of the following molecules.
1. COc1cc(/C=N/NC(=O)c2ccc(CSc3nc(C)cc(C)n3)cc2)cc(OC)c1OC
2. C/C(=N\NC(=O)c1ccc(CSc2nc3ccccc3s2)cc1)c1ccc([N+](=O)[O-])cc1
3. Cc1cc(C)nc(SCc2ccc(C(=O)N/N=C/c3c[nH]c4ccccc34)cc2)n1
4. O=c1[nH]cc(F)c(=O)[nH]1 [FLUOROURACIL]
5. O=C(CSc1nc2ccccc2s1)N/N=C1\C(=O)Nc2ccccc21
6. C/C(=N\NC(=O)CSc1nc2ccccc2s1)c1ccc(C)c([N+](=O)[O-])c1
7. O=C1Nc2ccccc2/C1=N/NC(=O)c1ccc(CSc2nc3ccccc3s2)cc1

Response given:
1. 33.3
2. 35.7
3. 34.1
4. 36
5. 23.9
6. 33
7. 5.71

Challenge: Tell me the measured IC50 of C/C(=N\NC(=O)c1ccc(CSc2nc(C)cc(C)n2)cc1)c1ccc(F)cc1 , please.
Response given: 4.85
